Origin of values: patent US11497731B2

# TARGET_OR_SYSTEM: VIM-2 (Escherichia coli, UniProt Q5U7L7)
# ASSAY_METHOD_TEXT: Inhibition constant (Ki) measurement test, VIM-2
# Type: biochemical
# ASSAY_CONDITIONS: Test Example 11, same manner as Test Example 6; read-out: Enzymatic Inhibition Effect Ki VIM-2
OBSERVED_PROPERTY: Ki (nM)

SMILES_INPUT	OBSERVED_PROPERTY	READOUT_NUMBER
CCc1c(C(=O)O)c(S(N)(=O)=O)c(CC)n1N	Ki	1970
CCc1c(C(=O)O)c(S(N)(=O)=O)c(C(C)C)n1C	Ki	17
CCc1c(C(=O)O)c(S(N)(=O)=O)c(C)n1C	Ki	23
CCc1c(S(N)(=O)=O)c(C(=O)O)c(C)n1C	Ki	100
CCc1c(S(N)(=O)=O)c(C(=O)O)c(-c2ccccc2)n1C	Ki	33
CCc1c(C(=O)O)c(S(N)(=O)=O)c(-c2ccccc2)n1C	Ki	19

###

# TARGET_OR_SYSTEM: NDM-1 (Klebsiella pneumoniae, UniProt C7C422)
# Sequence (C7C422 29-270, looked up, species assumed): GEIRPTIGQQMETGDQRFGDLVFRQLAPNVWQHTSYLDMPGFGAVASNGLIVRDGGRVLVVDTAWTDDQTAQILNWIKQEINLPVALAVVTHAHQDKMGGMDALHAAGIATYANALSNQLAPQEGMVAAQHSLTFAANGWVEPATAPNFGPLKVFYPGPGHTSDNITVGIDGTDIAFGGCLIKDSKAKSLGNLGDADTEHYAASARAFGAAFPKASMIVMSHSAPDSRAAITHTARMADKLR
# ASSAY_METHOD_TEXT: Inhibition constant (Ki) measurement test, NDM-1
# Assay type: biochemical
# ASSAY_CONDITIONS: Test Example 11, same manner as Test Example 6; read-out: Enzymatic Inhibition Effect Ki NDM-1
pKi: −log10 of the molar value.
Measured pKi, listed per entry.
OBSERVED_PROPERTY: pKi

SMILES_INPUT	OBSERVED_PROPERTY	READOUT_NUMBER
CCc1c(C(=O)O)c(S(N)(=O)=O)c(C(C)C)n1C	pKi	5.37
CCc1c(C(=O)O)c(S(N)(=O)=O)c(C)n1C	pKi	5.74
CCc1c(C(=O)O)c(S(N)(=O)=O)c(-c2ccccc2)n1C	pKi	5.82
CCc1c(S(N)(=O)=O)c(C(=O)O)c(C)n1C	pKi	5.76
CCc1c(S(N)(=O)=O)c(C(=O)O)c(-c2ccccc2)n1C	pKi	7.10
CCc1c(C(=O)O)c(S(N)(=O)=O)c(CC)n1N	pKi	4.66

###

# TARGET_OR_SYSTEM: IMP-1 (Serratia marcescens, UniProt P52699)
# Sequence (P52699 19-246, looked up, species assumed): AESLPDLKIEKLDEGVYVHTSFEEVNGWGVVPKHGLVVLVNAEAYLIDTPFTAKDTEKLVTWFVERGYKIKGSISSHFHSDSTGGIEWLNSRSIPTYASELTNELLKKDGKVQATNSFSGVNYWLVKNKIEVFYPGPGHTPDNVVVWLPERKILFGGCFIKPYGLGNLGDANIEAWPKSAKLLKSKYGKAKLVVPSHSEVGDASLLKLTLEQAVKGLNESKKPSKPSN
# ASSAY_METHOD_TEXT: Inhibition constant (Ki) measurement test, IMP-1
# Format: biochemical
# ASSAY_CONDITIONS: Test Example 11, same manner as Test Example 6; read-out: Enzymatic Inhibition Effect Ki IMP-1
In this section we review reported Ki values for a set of compounds.

SMILES_INPUT	UNIT_OF_MEASURE	Ki
CCc1c(S(N)(=O)=O)c(C(=O)O)c(C)n1C	nM	980
CCc1c(C(=O)O)c(S(N)(=O)=O)c(C)n1C	nM	1770
CCc1c(S(N)(=O)=O)c(C(=O)O)c(-c2ccccc2)n1C	nM	110
CCc1c(C(=O)O)c(S(N)(=O)=O)c(CC)n1N	nM	21400
CCc1c(C(=O)O)c(S(N)(=O)=O)c(C(C)C)n1C	nM	900
CCc1c(C(=O)O)c(S(N)(=O)=O)c(-c2ccccc2)n1C	nM	1240

###

# TARGET_OR_SYSTEM: VIM-2 (Escherichia coli, UniProt Q5U7L7)
# ASSAY_METHOD_TEXT: Inhibition constant (Ki) measurement test, VIM-2
# Assay type: biochemical
# ASSAY_CONDITIONS: imipenem substrate, enzyme 10 nM, 30° C., Lineweaver-Burk; read-out: Inhibition constant Ki VIM-2
OBSERVED_PROPERTY: Ki

SMILES_INPUT	TARGET_OR_SYSTEM	OBSERVED_PROPERTY	RESULT
Cc1c(C(=O)O)c(S(N)(=O)=O)c(C)n1C	VIM-2 (Escherichia coli, UniProt Q5U7L7)	Ki	420 nM
CCc1oc(CC)c(S(N)(=O)=O)c1C(=O)O	VIM-2 (Escherichia coli, UniProt Q5U7L7)	Ki	1010 nM
Cc1c(C(=O)O)c(S(N)(=O)=O)c(C)n1-c1ccccc1	VIM-2 (Escherichia coli, UniProt Q5U7L7)	Ki	20800 nM
Cc1oc(C)c(S(N)(=O)=O)c1C(=O)O	VIM-2 (Escherichia coli, UniProt Q5U7L7)	Ki	2800 nM
CCc1c(C(=O)O)c(S(N)(=O)=O)c(CC)n1C	VIM-2 (Escherichia coli, UniProt Q5U7L7)	Ki	20 nM
NS(=O)(=O)c1sc(Cl)cc1C(=O)O	VIM-2 (Escherichia coli, UniProt Q5U7L7)	Ki	2290 nM
CCCc1oc(CCC)c(S(N)(=O)=O)c1C(=O)O	VIM-2 (Escherichia coli, UniProt Q5U7L7)	Ki	460 nM
NS(=O)(=O)c1c(C2CCCC2)oc(C2CCCC2)c1C(=O)O	VIM-2 (Escherichia coli, UniProt Q5U7L7)	Ki	760 nM
NS(=O)(=O)c1sccc1C(=O)O	VIM-2 (Escherichia coli, UniProt Q5U7L7)	Ki	15500 nM
